# Tested on: HCV replicon 1AQ30D
# TEST DETAILS: microbe, parasite or virus in culture
# Type: cell-based, Hepatitis C virus (HCV)
# CONDITION DESCRIPTION: Hepatitis C virus, read-out: 1A Q30D IC50 (nM), replicon 1AQ30D; Replicon Assay B
QUANTITY MEASURED: IC50 (nM)
Answers are plain numbers, in nM.

COC(=O)NC(C(=O)N1CCC[C@H]1c1ncc(-c2cc(F)c3c(c2)OC(c2ccc(C4CC4)s2)n2c-3cc3cc(-c4cnc([C@@H]5CCCN5C(=O)[C@@H](NC(=O)OC)C5CCOCC5)[nH]4)ccc32)[nH]1)C(C)(C)F (some centres unmarked); 0.011

# ---- query compound ----
Note to self: IC50 recorded for COC(=O)N[C@H](C(=O)N1CCC[C@H]1c1ncc(-c2cc(F)c3c(c2)OC(c2cc(F)c(C4CC4)s2)n2c-3cc3cc(-c4cnc([C@@H]5CCCN5C(=O)[C@@H](NC(=O)OC)C(C)C)[nH]4)ccc32)[nH]1)C(C)C (single isomer, unassigned) was 0.78

* * *

I'd be grateful if you could share measured pIC50 for these entries.
# System: HCV replicon 1A
# TEST DETAILS: microbe, parasite or virus in culture
# Format: cell-based, Hepatitis C virus (HCV)
# CONDITION DESCRIPTION: HCV replicon 1A; Replicon Assay A
One number for each entry, as −log10 of the molar value.

COC(=O)N[C@H](C(=O)N1CCC[C@H]1c1ncc(-c2cc(C)c3c(c2)OC(c2ccc(C4CC4)s2)n2c-3cc3cc(-c4cnc([C@@H]5CCCN5C(=O)[C@@H](NC(=O)OC)C(C)C)[nH]4)ccc32)[nH]1)C(C)C (single isomer, unassigned) [Compound 752]; 11.55

// for each molecule in input: emit pIC50
1. COC(=O)N[C@H](C(=O)N1C[C@H](F)C[C@H]1c1ncc(-c2ccc3c(c2)OC(c2ccc(C)s2)n2c-3cc3cc(-c4cnc([C@@H]5C[C@H]6C[C@H]6N5C(=O)[C@@H](NC(=O)OC)C(C)C)[nH]4)ccc32)[nH]1)C(C)C (single isomer, unassigned) [Compound 707]
2. COC(=O)N[C@H](C(=O)N1CCC[C@H]1c1ncc(-c2ccc3c(c2)OC(c2ccc(C4CC4)s2)n2c-3c(F)c3cc(-c4cnc([C@@H]5C[C@H]6C[C@H]6N5C(=O)[C@@H](NC(=O)OC)C(C)C)[nH]4)ccc32)[nH]1)C(C)C (single isomer, unassigned) [Compound 612]
3. COC(=O)NC(C(=O)N1CCCC1c1ncc(-c2cc(F)c3c(c2)OC(c2ccc(C4CC4)s2)n2c-3cc3cc(-c4cnc(C5CCCN5C(=O)C(NC(=O)OC)C5CCOC(C)C5)[nH]4)ccc32)[nH]1)C(C)C (mixture of isomers)

### Response
1. 11.19
2. 11.80
3. 11.64

// for each molecule in input: emit pIC50
1. COC(=O)NC(C(=O)N1CCC[C@H]1c1ncc(-c2ccc3c(c2)cc2n3C(c3ccc(C4CCCC4)s3)Oc3cc(-c4cnc([C@@H]5CCCN5C(=O)[C@@H](NC(=O)OC)C(C)C)[nH]4)cc(F)c3-2)[nH]1)C1C[C@@H](C)O[C@@H](C)C1 (single isomer, unassigned) [Compound 656]
2. COC(=O)N[C@H](C(=O)N1C[C@H](F)C[C@H]1c1ncc(-c2ccc3c(c2)cc2n3C(c3cc4ccccc4s3)Oc3cc(-c4cnc([C@@H]5CCCN5C(=O)[C@@H](NC(=O)OC)C5CCOCC5)[nH]4)ccc3-2)[nH]1)C(C)C (single isomer, unassigned) [Compound 625]

### Response
[11.82, 11.72]

// for each molecule in input: emit pIC50
1. COC(=O)N[C@H](C(=O)N1C2CC2C[C@H]1c1ncc(-c2cc(F)c3c(c2)OC(c2ccc(C4CC4)s2)n2c-3cc3cc(-c4cnc([C@@H]5CCCN5C(=O)[C@@H](NC(=O)OC)C5C[C@@H](C)O[C@@H](C)C5)[nH]4)ccc32)[nH]1)C(C)C (single isomer, unassigned) [Compound 554]
2. COC(=O)N[C@H](C(=O)N1C2CC2C[C@H]1c1ncc(-c2cc(F)c3c(c2)OC(c2ccc(C4CC4)s2)n2c-3cc3cc(-c4cnc([C@@H]5CCCN5C(=O)[C@@H](NC(=O)OC)C5C[C@@H](C)O[C@@H](C)C5)[nH]4)ccc32)[nH]1)C(C)C (single isomer, unassigned) [Compound 558]
3. COC(=O)NC(C(=O)N1CCC[C@H]1c1ncc(-c2ccc3c(c2)cc2n3C(c3cc4ccccc4s3)Oc3cc(-c4cnc([C@@H]5CCCN5C(=O)[C@@H](NC(=O)OC)C(C)C)[nH]4)cc(F)c3-2)[nH]1)C1C[C@@H](C)O[C@@H](C)C1 (single isomer, unassigned) [Compound 642]

### Response
10.57
10.27
11.72

// for each molecule in input: emit pIC50
1. COC(=O)N[C@H](C(=O)N1CCC[C@H]1c1ncc(-c2ccc3c(c2)OC(c2cc4ccccc4s2)n2c-3cc3cc(-c4cnc([C@@H]5C[C@H]6C[C@H]6N5C(=O)[C@@H](NC(=O)OC)C(C)C)[nH]4)ccc32)[nH]1)C(C)C (single isomer, unassigned) [Compound 609]
2. COC(=O)NC(C(=O)N1[C@@H]2C[C@@H]2C[C@H]1c1ncc(-c2ccc3c(c2)c(F)c2n3C(c3ccc(C4CC4)s3)Oc3cc(-c4cnc([C@@H]5CCCN5C(=O)[C@@H](NC(=O)OC)C(C)C)[nH]4)ccc3-2)[nH]1)C1C[C@@H](C)O[C@@H](C)C1 (single isomer, unassigned) [Compound 644]
3. COCc1ccc(C2Oc3cc(-c4cnc([C@@H]5CCCN5C(=O)[C@@H](NC(=O)OC)C(C)C)[nH]4)cc(F)c3-c3cc4cc(-c5c[nH]c([C@@H]6CCCN6C(=O)[C@@H](NC(=O)OC)C(C)C)n5)ccc4n32)s1 (single isomer, unassigned) [Compound 513]
4. COC(=O)N[C@H](C(=O)N1C[C@H](F)C[C@H]1c1nc(-c2ccc3c(c2)OC(c2ccc(C)s2)n2c-3cc3cc(-c4c[nH]c([C@@H]5C[C@H]6C[C@H]6N5C(=O)[C@@H](NC(=O)OC)C5CCOCC5)n4)ccc32)c[nH]1)C1CCOCC1 (single isomer, unassigned) [Compound 730]
5. COC(=O)N[C@H](C(=O)N1CCC[C@H]1c1nc(-c2ccc3c(c2)OC(c2ccc(C)s2)n2c-3cc3cc(-c4c[nH]c([C@@H]5NCCN5C(=O)[C@@H](NC(=O)OC)C(C)C)n4)ccc32)c[nH]1)C(C)C (single isomer, unassigned) [Compound 702]

### Response
1: 11.13; 2: 11.59; 3: 11.41; 4: 10.17; 5: 11.13
